- experimental_system: human M4 muscarinic acetylcholine receptor (Homo sapiens, UniProt P08173)
- protocol_notes: human FLIPR-based M4 PAM assay (Ca2+ mobilization, CHO-K1 cells with human M4 receptor and Gαqi5)
- experimental_conditions: acetylcholine at 20% of maximum response, read-out: M4 PAM IP
measured_metric: EC50 (nM)
Just the number in nM, nothing appended.

Param item = Cc1cc2c(nc1N1CC[C@H](Oc3cccc(C#N)c3)[C@H](F)C1)CNC2=O ; retrieve measured EC50.
57

What does the data say about its EC50? Entry: COCCOC1CCN(c2nc3c(cc2C)C(=O)NC3)CC1
11200

Which value of EC50 has been reported for Cc1nc2cc(OC3CCN(c4nc5c(cc4C)C(=O)NC5)CC3)ccc2[nH]1 in the records?
1000

Name the recorded EC50 for COCCOc1ccc(O[C@@H]2CCN(c3nc4c(cc3C)C(=O)NC4)C[C@H]2F)cn1 .
207

Could you share which EC50 value was measured for Cc1cc2c(nc1N1CCC(Oc3ccc4c(cnn4C)c3)CC1)CN(C)C2=O ?
37

// lookup EC50 for Cc1cc2c(nc1N1CC[C@@H](Oc3ccc4c(c3)COCC4)[C@@H](F)C1)CNC2=O [Example 178B]
18

// EC50 lookup, key: Cc1cc2c(nc1N1CCC(Oc3ccc4c(c3)CN(C(=O)OC(C)(C)C)CC4)CC1)CNC2=O
515

###

// reported EC50 for each item listed
- experimental_system: human M4 muscarinic acetylcholine receptor (Homo sapiens)
- protocol_notes: human FLIPR-based M4 PAM assay (Ca2+ mobilization, CHO-K1 cells with human M4 receptor and Gαqi5)
- experimental_conditions: acetylcholine at 20% of maximum response, read-out: M4 PAM IP
Please state the figure in nM; there is no need to write the unit.

> print(dat)
                                   molecule  readout.units  data.value
1  Cc1cc2c(nc1N1CC[C@@H](Oc3ccccc3)[C@@H](F)C1)CN(CCO)C2=O             nM          68
2  COc1ccc(OC2CCN(c3nc4c(cc3C(F)F)C(=O)NC4)CC2)cn1             nM        1310
3  Cc1cc2c(nc1N1CCC(Oc3ccc4c(c3)CCCN4)CC1)CNC2=O             nM          32
4  Cc1cc2c(nc1N1CCC(OCCC3(C)CC3)CC1)CNC2=O [Example 65A]             nM         164
5  Cc1cc2c(nc1N1CCC(Oc3ccc4c(c3)OC[C@H]4CCO)CC1)CNC2=O             nM         128
6  Cc1cc2c(nc1N1CC[C@@H](Oc3ccc4c(cnn4C)c3)[C@@H](F)C1)[C@H](CO)N(C)C2=O             nM        4330

Given the entry COc1cc(OC2CCN(c3nc4c(cc3C)C(=O)NC4)CC2)ccn1 , report its measured EC50.
94

For COC(=O)c1ccc(OC2CCN(c3nc4c(cc3C)C(=O)NC4)CC2)cn1 , what is its reported EC50?
1000

###

- experimental_system: human M4 muscarinic acetylcholine receptor (Homo sapiens, UniProt P08173)
- Sequence (P08173 1-479): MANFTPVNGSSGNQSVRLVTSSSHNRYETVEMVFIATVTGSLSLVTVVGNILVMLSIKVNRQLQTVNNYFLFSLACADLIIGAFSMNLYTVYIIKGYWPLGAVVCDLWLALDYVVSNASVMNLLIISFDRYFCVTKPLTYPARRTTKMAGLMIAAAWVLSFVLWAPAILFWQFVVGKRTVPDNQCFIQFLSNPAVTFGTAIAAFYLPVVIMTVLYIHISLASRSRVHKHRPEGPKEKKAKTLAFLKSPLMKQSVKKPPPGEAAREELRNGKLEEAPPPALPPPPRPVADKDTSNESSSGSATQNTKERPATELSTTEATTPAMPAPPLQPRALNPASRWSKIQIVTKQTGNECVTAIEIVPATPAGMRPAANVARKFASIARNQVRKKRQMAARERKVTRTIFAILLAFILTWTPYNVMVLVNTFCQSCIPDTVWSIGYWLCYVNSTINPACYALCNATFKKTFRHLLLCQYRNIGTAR
- protocol_notes: human FLIPR-based M4 PAM assay (Ca2+ mobilization, CHO-K1 cells with human M4 receptor and Gαqi5)
- experimental_conditions: acetylcholine at 20% of maximum response, read-out: M4 PAM IP
# key: entry, value: EC50
# value in nM; strip the unit string

> print(dat)
                                   molecule                       experimental.system  data.value
1  COc1ccc(OC2CCN(c3nc4c(c(C(F)F)c3C)C(=O)NC4)CC2)cn1 [Example 307A]  human M4 muscarinic acetylcholine receptor (Homo sapiens, UniProt P08173)         279
2  CCc1cc2c(nc1N1CCC(Oc3ccc4c(c3)OCC4)CC1)CN(CCO)C2=O [Example 265A]  human M4 muscarinic acetylcholine receptor (Homo sapiens, UniProt P08173)         100
3  Cc1cc2c(nc1N1CCC(Oc3cccc(CO)c3)CC1)CNC2=O  human M4 muscarinic acetylcholine receptor (Homo sapiens, UniProt P08173)          47
4  Cc1cc2c(nc1N1CCC(Oc3cnn(C4CC4)c3)CC1)CNC2=O [Example 311A]  human M4 muscarinic acetylcholine receptor (Homo sapiens, UniProt P08173)         108
5  Cc1c(N2CCC(Oc3ccc4c(c3)OCC4)CC2)nc2c(c1C)C(=O)NC2  human M4 muscarinic acetylcholine receptor (Homo sapiens, UniProt P08173)          37
6  Cc1c(N2CCC(Oc3ccc4c(c3)COCC4)CC2)nc2c(c1C)C(=O)N(C)[C@H]2CO (single isomer, unassigned) [Example 337D]  human M4 muscarinic acetylcholine receptor (Homo sapiens, UniProt P08173)         613

Observed EC50 on human M4 muscarinic acetylcholine receptor (Homo sapiens, UniProt P08173) for Cc1cc2c(nc1N1CC[C@@H](Oc3ccccc3)[C@@H](F)C1)CN(C(C)C)C2=O , please.
88

Can you look up EC50 on human M4 muscarinic acetylcholine receptor (Homo sapiens, UniProt P08173) for Cc1cc2c(nc1N1CCC(OCc3ccccc3)CC1)CNC2=O ?
145
